Target: ACE extracted from rabbit lungs (Oryctolagus cuniculus, UniProt P12822)
Sequence (P12822 34-1310): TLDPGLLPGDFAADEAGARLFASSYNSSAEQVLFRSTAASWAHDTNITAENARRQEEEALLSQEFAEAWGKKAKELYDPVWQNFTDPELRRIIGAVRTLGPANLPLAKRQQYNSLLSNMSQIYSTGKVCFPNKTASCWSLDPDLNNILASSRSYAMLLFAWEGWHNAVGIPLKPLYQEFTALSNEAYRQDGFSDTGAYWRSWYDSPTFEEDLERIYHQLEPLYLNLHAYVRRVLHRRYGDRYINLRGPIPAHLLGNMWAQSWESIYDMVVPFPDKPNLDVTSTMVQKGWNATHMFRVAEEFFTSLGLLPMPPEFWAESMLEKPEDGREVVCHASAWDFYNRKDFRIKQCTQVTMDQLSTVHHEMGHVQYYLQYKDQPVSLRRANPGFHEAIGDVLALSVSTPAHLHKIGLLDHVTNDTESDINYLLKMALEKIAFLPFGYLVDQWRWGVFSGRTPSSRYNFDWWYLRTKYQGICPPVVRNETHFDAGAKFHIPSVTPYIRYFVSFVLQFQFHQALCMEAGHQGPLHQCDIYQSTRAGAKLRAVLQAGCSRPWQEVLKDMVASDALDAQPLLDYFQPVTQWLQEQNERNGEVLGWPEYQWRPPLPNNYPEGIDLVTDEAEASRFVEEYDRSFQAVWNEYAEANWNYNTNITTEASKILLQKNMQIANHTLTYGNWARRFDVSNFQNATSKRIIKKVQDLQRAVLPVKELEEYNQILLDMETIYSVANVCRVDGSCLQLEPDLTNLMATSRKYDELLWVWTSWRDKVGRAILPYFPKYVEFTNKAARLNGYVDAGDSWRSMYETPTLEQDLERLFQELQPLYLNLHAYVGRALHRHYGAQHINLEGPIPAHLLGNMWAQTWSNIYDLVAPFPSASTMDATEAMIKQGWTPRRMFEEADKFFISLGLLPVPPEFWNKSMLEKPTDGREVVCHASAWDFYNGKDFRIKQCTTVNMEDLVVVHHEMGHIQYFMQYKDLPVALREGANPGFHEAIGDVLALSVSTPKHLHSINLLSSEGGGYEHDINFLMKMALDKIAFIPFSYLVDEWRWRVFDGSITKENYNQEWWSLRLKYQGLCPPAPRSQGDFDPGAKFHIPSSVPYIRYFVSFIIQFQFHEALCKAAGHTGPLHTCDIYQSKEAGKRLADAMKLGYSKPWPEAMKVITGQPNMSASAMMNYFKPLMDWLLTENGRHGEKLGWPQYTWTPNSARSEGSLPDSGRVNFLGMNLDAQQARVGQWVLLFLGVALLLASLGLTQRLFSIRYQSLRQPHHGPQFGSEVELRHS
Where a name gives a salt, the structure may show the parent alone.
quantity-kind: IC50 (nM)

> print(dat)
                                   molecule  reported.measurement
1  NCCCCCCCC(NC1CCC(c2ccccc2)CN(CC(=O)O)C1=O)C(=O)O (centres unmarked)                   4.1
2  NCCCC[C@H](N[C@H]1CS[C@H](c2cccs2)CN(CC(=O)O)C1=O)C(=O)O [A, dihydrochloride]                   3.3
3  NCCCCCCC(NC1CSC(c2ccccc2)CN(CC(=O)O)C1=O)C(=O)O (centres unmarked)                   3.1

(a) O=C(O)CN1C[C@@H](c2ccccc2)CC[C@H](N[C@@H](CCCCC2CCNCC2)C(=O)O)C1=O (relative stereo)
(b) NCCCCCCC[C@H](N[C@H]1CS[C@H](c2cccs2)CN(CC(=O)O)C1=O)C(=O)O
Q) Select one: a or b . Criterion: greater recorded IC50. Give the label under which the chosen entry appears.
A) a
